# Ki values compiled below
Biological target: T1, human Nectin-4 (human, UniProt Q96NY8 32-349)
T1 construct: a Gly32-Ser349 FLAG construct is described only under the SPR assay; also called PVRL4
T1 sequence (looked up): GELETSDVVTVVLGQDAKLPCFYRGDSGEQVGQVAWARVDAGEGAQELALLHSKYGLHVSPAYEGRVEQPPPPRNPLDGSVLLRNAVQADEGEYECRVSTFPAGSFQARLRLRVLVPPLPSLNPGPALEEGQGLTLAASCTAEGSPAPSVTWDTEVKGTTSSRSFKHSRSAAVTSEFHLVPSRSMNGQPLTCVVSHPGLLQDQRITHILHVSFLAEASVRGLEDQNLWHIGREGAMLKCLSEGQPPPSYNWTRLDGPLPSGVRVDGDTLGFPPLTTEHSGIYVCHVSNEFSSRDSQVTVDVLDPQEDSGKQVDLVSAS
Assay: FP competition, tracer SEQ ID NO 217
*1 amine or outer side, *2 acyl side, *3 side chain or, on linkers, in order; H or OH if unused. Bridges are numbered along the chain shown (N, C = ends). Where no end group is shown, it is not given here. [ ]: non-standard residue; d: D form. TATA = O=C(CC[*:1])N1CN(C(=O)CC[*:2])CN(C(=O)CC[*:3])C1; 1Nal = N[C@@H](Cc1cccc2ccccc12)C(=O)O; Hyp = O=C(O)[C@@H]1C[C@@H](O)CN1; hArg = N=C(N)NCCCC[C@H](N)C(=O)O; βAla = NCCC(=O)O; Sar = CNCC(=O)O
Measurement Type: Ki

1. Ac-CPF[dD]CM[hArg]NWSTPPWC (linker 1-5-15 via TATA) [BCY8036] = 7.5 nM
2. Ac-QKWCAPL[dA]DYWCNRIC (linker 4-12-16 via TATA) [BCY7639] = 490 nM
3. {Ac-βAla}-[Sar][Sar][Sar][Sar][Sar]CP[1Nal][dD]CM[hArg]DWSTP[Hyp]WC (linker 6-10-20 via TATA) [BCY8122] = 3 nM
4. DTACPFGCMRGWSWPIWCA (linker 4-8-18 via TATA) [BCY3388] = 129 nM
5. ACPFGCMKNWSAPIWCTNK (linker 2-6-16 via TATA, also called 80-09-02-T01-N012) [BCY7342] = 310 nM
6. ACPFGCMKTWSWPIWCTDK (linker 2-6-16 via TATA) [BCY3394] = 102 nM
